- Test system: MCF7 breast
- run_description: NCI-60 one-dose screen, 48 h
- condition_set: 10 µM unless noted
The panel holds about 83,000 compounds, 20% with a hit somewhere; the sample as a whole holds those more often. The source made the active and inactive calls. The calls were made as follows: active = growth percent below 10; inactive = the rest.
Valid outcomes are listed here; reply with one: y for active, n for inactive

Q: Assay result, entry Cc1ccc(C2CC(c3cccc(Nc4ccncc4)c3)=NN2c2ccccc2)cc1 (configuration not stated) — outcome?
A: y

Q: Input CN1C(=O)N(C)C2NC(N/N=C/c3ccccc3)=NC21 (configuration not stated)
A: n

Q: Input `C[C@H]1[C@H](C)CC[C@]2(CO)CC[C@]3(C)C(=CC[C@@H]4[C@@]5(C)CCCNC(C)(C)[C@@H]5CC[C@]43C)[C@H]12`
A: y

Q: Input `COc1nccnn1`
A: n

Q: Input Fc1cc(C2=NNC(c3ccc[nH]3)C2)ccc1-n1ccc(C(F)(F)F)n1 (configuration not stated)
A: n

Q: Input `C=C(C)[C@@H]1CC[C@]2(C(=O)NCCCN(CCC#N)CCC#N)CC[C@]3(C)[C@H](CC[C@@H]4[C@@]5(C)CCC(=O)C(C)(C)[C@@H]5CC[C@]43C)[C@@H]12`
A: n

Q: Input `C[C@]12CCc3nc(Nc4cccc(O)c4)sc3C1=CC[C@@H]1[C@@H]2CC[C@]2(C)/C(=N\NC(N)=S)CC[C@@H]12`
A: y

Q: Input `O=C(N/N=C/c1ccncc1)c1ccccc1Nc1cccc(C(F)(F)F)c1`
A: n

Q: Input `O=C1c2ccccc2C(=O)c2c(NCCN=Cc3ccccc3O)cccc21`
A: n

Q: Input `COc1ccc(NC(=O)c2sc3nc(C)c(C(=O)c4ccc(OC)cc4)cc3c2N)cc1`
A: n

Q: Input `Cn1c2c(Cl)c(Cl)ccc2c2cc(N)[nH]c(=O)c21`
A: n

Q: Input `O=C(/C=C/c1ccc[nH]1)c1ccc(-n2ccc(C(F)(F)F)n2)cc1`
A: n

Q: Input `COc1ccc(C2=C(c3ccccc3)c3ccc(OC(C)=O)cc3OC2(C)C)cc1`
A: n

Q: Input O=C(OC(OC(=O)c1cc(Cl)cc(Cl)c1)c1cccc2ccccc12)c1ccccc1 (configuration not stated)
A: n

Q: Input `CC(=O)[C@@H]1CC[C@]2(C(=O)n3ccnc3)CC[C@]3(C)[C@H](CC[C@@H]4[C@@]5(C)Cc6c([nH]c7ccccc67)C(C)(C)[C@@H]5CC[C@]43C)[C@@H]12`
A: n

Q: Input `O=C1/C(=C/c2ccc(O)cc2)COc2ccc(-c3ccccc3)cc21`
A: n

Q: Input `NC(=O)c1cccc(-n2ccc3cc(NC(=O)Nc4cc(C(F)(F)F)cc(C(F)(F)F)c4)ccc32)n1`
A: n

Q: Input `C#Cc1cccc(NC(=O)Nc2ccc(NC(=O)CCl)cc2)c1`
A: n

Q: Input CCN1C(=O)N(CC)C2C1NN=c1s/c(=C3\C(=O)Nc4ccccc43)c(=O)n12 (configuration not stated)
A: n

Q: Input CN(Cc1ccccc1)c1nc(Cl)c(C2CC(c3ccc(Cl)cc3)=Cc3[nH][nH]c(=O)c32)s1 (configuration not stated)
A: n

Q: Input O=c1[nH]c2c(s1)CCCC2CN1CCCCC1 (configuration not stated)
A: n

Q: Input CC(C)NC(=O)N1C(=O)CCC1NNC(=O)c1ccc([N+](=O)[O-])cc1 (configuration not stated)
A: n

Q: Input `Cc1cccc(Oc2ccc(Nc3ncnc4ccc(NC(=O)CN(C)C)cc34)cc2Cl)c1`
A: n

Q: Input `O=C(Nc1nc2ccc(S(=O)(=O)Nc3ccc(C4(C(F)(F)F)CC4)cc3)cc2[nH]1)c1cnccn1`
A: n

Q: Input `c1ccc2c(-c3c4ccsc4cc4[nH]c5ccccc5c34)c[nH]c2c1`
A: n

Q: Input COc1ccc(C(O)c2cc3c(N)c(C(=O)Nc4ccccc4)sc3nc2C)cc1 (configuration not stated)
A: n

Q: Input `Fc1ccc2nc3c(cc2c1)CSc1nnc(-c2ccc[nH]c2=S)n1N3`
A: n

Q: Input `COc1ccccc1/C=C1\Oc2cc(OCCCN3CCCC3)ccc2C1=O`
A: n

Q: Input `O=C(Nc1nc(-c2ccccc2Cl)cs1)c1cc(-c2ccccc2)nc2ccc(Cl)cc12`
A: n

Q: Input `CC(=O)c1c[nH]c2ccc(-c3ccnc(Nc4ccc(NC(=O)c5cccc(F)c5)c(CN5CCOCC5)c4)n3)cc12`
A: y

Q: Input c1ccc(N2N=C(c3cccc(Nc4ccncc4)c3)CC2c2ccc3c(c2)OCO3)cc1 (configuration not stated)
A: y

Q: Input `O=C(CN1CCOCC1)Nc1ccc2ncnc(Nc3ccc(Oc4cccc(F)c4)c(Cl)c3)c2c1`
A: n

Q: Input `COc1cc(Nc2cc(O)c3c(=O)cc(-c4ccccc4)oc3c2)cc(OC)c1`
A: n

Q: Input `Nc1c(C(=O)Nc2ccc(Cl)cc2)cc(-c2nc3ccccc3s2)c(=O)n1NS(=O)(=O)c1ccc(Cl)cc1`
A: n

Q: Input `CC(=O)O[C@]1(C(C)=O)CC[C@H]2[C@@H]3C=C(Cl)C4=CC(=O)CC[C@]4(C)[C@H]3CC[C@@]21C`
A: n

Q: Input COc1ccc(C(O)c2cc3c(N)c(C(=O)Nc4cccc(Br)c4C)sc3nc2C)cc1 (configuration not stated)
A: n

Q: Input NS(=O)(=O)c1cccc(NC(=O)C(=O)C2C(=O)Nc3ccccc32)c1 (configuration not stated)
A: n
